- Test system: Wolbachia pipientis
- assay protocol: Anti-Wolbachia Cell-Based Screen
- Type: functional
- Design: scale not given: in the data most compounds retested in dose-response had high values
- condition details: 5 µM
Screen size: about 48,000 compounds; about 13,000 (27%) showed an effect of 50% or more. The list shows a part of the results.
Catalogue of Percent Effect readings, one per entry.
The answer is to be given in %; state only the numeric part.

CCN(Cc1cccc2c1OCO2)C(=O)Nc1cn[nH]c1 = 109.5

Item O=C(Cc1ccccc1Br)NCC(=O)Nc1cn[nH]c1 ; assay system Wolbachia pipientis; Percent Effect reported as -11.75

# value of Percent Effect, Wolbachia pipientis, item CCN(Cc1cccc2c1OCO2)C(=O)Nc1ccccn1 = 122.5

Response field Percent Effect (Wolbachia pipientis) for item CCc1nc(CC)n(CC(=O)N(C)CC(F)(F)F)n1 : 0.1098

The compound Cc1cc(CN(C)C(=O)NCc2ccccn2)no1 , tested on Wolbachia pipientis, showed Percent Effect of 9.808

Case CCN(Cc1cccc2c1OCO2)C(=O)NCc1ccccn1 , Wolbachia pipientis, Percent Effect recorded as 102.4

The value of Percent Effect recorded for CCN(Cc1ccc2c(c1)OCO2)C(=O)NCc1nc(C)cs1 when tested on Wolbachia pipientis reads -7.212

The measured Percent Effect that O=C(Nc1cn[nH]c1)N(CCO)C1CCc2ccccc21 (configuration not stated) showed for Wolbachia pipientis is 3.342

Let me check: CC(C)(C)CN1CC[C@H](c2nnc(Cc3c[nH]c4ccccc34)o2)C1 , system Wolbachia pipientis, measured Percent Effect is 1.678

Reported Percent Effect (Wolbachia pipientis) for entry CCc1nc(CC)n(CC(=O)N(CC)CC)n1 is -1.582

Bench note, Wolbachia pipientis: COc1cc(CN(C)C(=O)NCc2cccc3c2OCO3)ccc1SC , Percent Effect reads -31.12

Record CCc1nc(CC)n(CC(=O)NCc2ccccc2C)n1 / Wolbachia pipientis, Percent Effect recorded as 109.4

====

Recorded Percent Effect values for a group of compounds are listed next.
- System: Wolbachia pipientis
- assay protocol: Anti-Wolbachia Cell-Based Screen
- Type: functional
- Design: scale not given: in the data most compounds retested in dose-response had high values
- condition details: 5 µM
The campaign covered roughly 48,000 compounds. About 13,000 (27%) showed an effect of 50% or more. This is one part of the list.
The response must be a number in % with no trailing unit.

// worked examples, Percent Effect included
C[C@@H]1CN(C(=O)c2cc(COc3ccc4c(c3)OCO4)[nH]n2)C[C@H](C)O1 = -15.32
COc1ccc(C)cc1C(=O)N1C[C@@H](CN(C)CCO)[C@@H](CO)C1 = -25.29
CCCS(=O)(=O)N1CC[C@@H]2[C@@H]1CC(=O)N2Cc1csc(C)n1 = 71.41
CCOCC(=O)N1CC[C@H]2[C@@H]1CCC(=O)N2Cc1csc(C)n1 = 22.07
CN(Cc1nncn1C)C(=O)c1cc(COc2ccccc2)[nH]n1 = -18.45

Note to self: Percent Effect recorded for OCC(O)CSCc1cn(-c2ccc(Cl)cc2)nn1 (configuration not stated) was -1.714

The compound COC(=O)C1C=CCN1C(=O)c1cc(COc2ccccc2)[nH]n1 (configuration not stated) showed Percent Effect equal to 114.9

For record CN(C)c1ncc2c(n1)N(C)CCN(CC1CC1)C2=O the listed Percent Effect is 109.4

The reported value for O=C(O)C(F)(F)F.O=C(O)C(F)(F)F.O=C(c1ccsc1)N1CCOC2(CCN(Cc3cccnc3)CC2)C1 in terms of Percent Effect is -15.45

Query COc1ccccc1OCc1cc(C(=O)N2CCOCC2CO)n[nH]1 (configuration not stated) yields Percent Effect of -19.45

Entry COCCN(C)C[C@@H]1CN(C(=O)c2ccoc2)C[C@@H]1CO ; Percent Effect = -5.57

Looking up O=C(c1ccc2c(c1)COC2)N1CCN(CC2CC2)CC1 , I see its Percent Effect listed as -6.158

====

As shown below, each of these molecules has a reported Percent Effect value.
- Test system: Wolbachia pipientis
- assay protocol: Anti-Wolbachia Cell-Based Screen
- Type: functional
- Parameters: scale not given: in the data most compounds retested in dose-response had high values
- condition details: 5 µM
The campaign covered roughly 48,000 compounds. About 13,000 (27%) showed an effect of 50% or more. The list shows a part of the results.
Output spec: scalar in %, unitless text.

As a guide, the following entries are already answered.
Nc1nc(CN2CCCC(Cn3cncn3)C2)nc2ccccc12 (stereo unspecified) = -7.621
c1coc(-c2nnc(CN3CCOC(Cn4cccn4)C3)o2)c1 (stereo unspecified) = -1.801
c1ccc2oc(CCCN3CCCC(Cn4cncn4)C3)nc2c1 (stereo unspecified) = 99.07
CC(C)(C)c1nnc(CN2CCOC(Cn3cccn3)C2)o1 (stereo unspecified) = -7.281
Cc1cnn(CC2CN(CCCS(C)(=O)=O)CCO2)c1 (stereo unspecified) = -24.88

--- query ---
Note to self: Percent Effect of O=c1[nH]c(CCN2CCCC(Cn3cncn3)C2)nc2ccccc12 (stereo unspecified) with Wolbachia pipientis was 2.487

====

- Test system: Wolbachia pipientis
- assay protocol: Anti-Wolbachia Cell-Based Screen
- Assay type: functional
- Parameters: scale not given: in the data most compounds retested in dose-response had high values
- condition details: 5 µM
Out of some 48,000 compounds screened, about 13,000 (27%) showed an effect of 50% or more. Some of the results follow.
readout: Percent Effect (%)
Please state the figure in %; there is no need to write the unit.

Examples with answers:
CCOc1cccc(NC(=O)c2cc[nH]n2)n1 = 87.66
Cn1ncc2c1CCCC2NCc1ccc(Cl)s1 (stereo unspecified) = -1.294
NC(=O)C1(c2cnccn2)CCCN1Cc1ccc(Cl)c(F)c1 (stereo unspecified) = 137
Cc1nc(C)n(CC2CCCCN2Cc2cnc(C)s2)n1 (stereo unspecified) = 97.07
CCn1cc2c(n1)C(COC)CN(C(=O)COc1ccccc1)C2 (stereo unspecified) = -10.51
CCOc1cccc(COC(=O)c2cc(C)on2)n1 = 106.6
NC(=O)c1cccc(CNC/C=C/c2ccccc2)c1 = -6.459
O=C(c1cccc(F)c1)N1C[C@@H](CN2CCCCC2)[C@@H](CO)C1 = 0.9976
COC(=O)c1sccc1S(=O)(=O)NCCC(O)c1ccco1 (stereo unspecified) = -8.026
CNC(=O)C1(c2cnccn2)CCCN1C(=O)c1ccc(F)cc1 (stereo unspecified) = 95.13

Recorded Percent Effect (compound Cn1nnc2c1CCN(C(C(=O)N1CCCCC1)c1ccccc1)C2 (stereo unspecified) ): 4.107

Per the record, CNC(=O)c1cnc2c(C)csc2c1 has Percent Effect of 142.5

// CSc1ccc(CNC2CCCc3c2cnn3C)cc1.Cl (stereo unspecified) : Percent Effect value = 78.82

// field: Percent Effect; key: CCOc1cccc(COC(=O)c2ccc(Cl)cn2)n1 ; value = -10.12

Just so you know, measured Percent Effect for Fc1ccc(-c2cnc(CN3CCCC3Cn3cccn3)o2)cc1 (stereo unspecified) came out at -6.963

====

// reported Percent Effect per item
- Test system: Wolbachia pipientis
- assay protocol: Anti-Wolbachia Cell-Based Screen
- Format: functional
- Parameters: scale not given: in the data most compounds retested in dose-response had high values
- condition details: 5 µM
About 13,000 (27%) of roughly 48,000 compounds showed an effect of 50% or more. The list shows a part of the results.
Dear colleague, please return just the value in %, with no unit written.

COC(=O)NC1(C(=O)Nc2ccc(-c3cc[nH]n3)cc2)CCCC1 = -10.93
OCC1(CC2CCCCO2)CCN(c2cnc3ccccc3n2)CC1 (configuration not stated) = -13.06
CCC1CN(CC(=O)NCc2ccco2)CCO1 (configuration not stated) = -17.78
COc1cccc(CN(C)Cc2[nH]c3ccccc3c2C)c1O = 10.98

Entry O=S(=O)(Cc1nc(C2CC2)no1)c1ccccc1F — recorded Percent Effect = -2.004

# Percent Effect (molecule: CC(C(=O)Nc1ccc2ccccc2c1)N1CCC(n2ccnc2)CC1 (configuration not stated) ) is 14.62

For record COCCOC(=O)N1CCC(c2nccn2CC2CC2)CC1 the listed Percent Effect is 0.7863

The reported Percent Effect of the molecule CC(C)(C)C(=O)NCCC1CN(Cc2ccccc2F)CCO1 (configuration not stated) was -7.627

Notebook: COCCNC(=O)C(C)S(=O)(=O)c1ccc(OC)cc1 (configuration not stated) , Percent Effect read as -5.557

// Percent Effect lookup, molecule = CCN(CC)C1(Cc2cc(CC(C)C)on2)COC1 , result: -8.16

Percent Effect in this record for Cc1ccc(C(=O)N2CCC3(CC2)NC(=O)CC3c2ccccc2)cn1.O=C(O)C(F)(F)F (configuration not stated) : 15.96

response.value for O[C@@H]1C[C@@H](c2nc(-c3ccc(F)cc3)no2)N(C2CCOCC2)C1 (field: Percent Effect) = -13.07

Provenance of the data: ChEMBL document CHEMBL3988442
